Molecular target: T1, human FXa (Homo sapiens, UniProt P00742)
T1 construct: purchased American Diagnostica Inc
T1 sequence (P00742 235-488 limits assumed): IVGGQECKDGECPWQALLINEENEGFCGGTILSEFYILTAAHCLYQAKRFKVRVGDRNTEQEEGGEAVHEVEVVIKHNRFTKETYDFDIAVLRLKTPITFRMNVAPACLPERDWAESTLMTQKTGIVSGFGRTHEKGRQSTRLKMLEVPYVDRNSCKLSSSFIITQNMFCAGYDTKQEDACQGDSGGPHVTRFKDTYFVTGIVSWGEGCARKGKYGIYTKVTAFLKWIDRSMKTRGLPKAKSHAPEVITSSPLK
T1 sequence (P00742 41-179 partner limits assumed): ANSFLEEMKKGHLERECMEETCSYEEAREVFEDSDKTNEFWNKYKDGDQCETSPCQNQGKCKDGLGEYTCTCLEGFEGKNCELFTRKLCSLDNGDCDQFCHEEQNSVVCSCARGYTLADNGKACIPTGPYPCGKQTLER
Experiment: FXa-inhibiting activity (synthetic substrate S-2222)
Assay type: biochemical
Settings: relative to control AN68; concentration expressed as bovine trypsin-inhibiting activity
METRIC: FXa-inhibiting activity, times higher than that of polypeptide AN68

>>> data_value("Q19K/Y46D: formula 1 sequence with Lys for position 15 Gln and Asp for position 42 Tyr; SEQ. I.D. NO. 35; plasmid pM727 (protein) AACNLPIVRGPCRAFIKLWAFDAVKGKCVLFPYGGCQGNGNKFDSEKECREYCGVPGDGDEELLRFSN")
"about twenty"
>>> data_value("R11Q/Q19K/Y46D: formula 1 sequence with Gln for position 7 Arg, Lys for position 15 Gln, Asp for position 42 Tyr; SEQ. I.D. NO. 37 (protein) AACNLPIVQGPCRAFIKLWAFDAVKGKCVLFPYGGCQGNGNKFDSEKECREYCGVPGDGDEELLRFSN")
"about twenty"
